Study target: Recombinant human his-tagged IGF 1R extracellular domain protein (human) (UniProt P08069)
Experiment notes: SPR, captured IgG, IGF-1R ECD-his analyte, dissociation pH 7.4
Examples of binders with documented koff follow.
Please reply with the bare figure in s⁻¹ and do not write the unit itself.

Worked examples follow.
binder="VRDN-02545 (antibody, V domains shown) VH: EVQLVQSGGGLVKPGGSLRLSCAASGFTFSSFAMHWVRQAPGKGLEWISVIDTRGATYYADSVKGRFTISRDNAKNSLYLQMNSLRAEDTAVYYCARLGNFYYGMDVWGQGTTVTVSS VL: EIVLTQSPGTLSVSPGERATLSCRASQSIGSSLHWYQQKPGQAPRLLIKYASQSLHGIPDRFSGSGSGTDFTLTISRLEPEDFAVYYCHQSSRLPHTFGQGTKVEIK" recorded_value=3.03e-05
binder="VRDN-02508 (antibody, V domains shown) VH: EVQLVQSGGGLVKPGGSLRLSCAASGFTFSSFHMHWVRQAPGKGLEWISVIDTRGATYYADSVKGRFTISRDNAKNSLYLQMNSLRAEDTAVYYCARLGNFYYGMDVWGQGTTVTVSS VL: EIVLTQSPGTLSVSPGERATLSCRASQSIGSSLHWYQQKPGQAPRLLIKYASQSLSGIPDRFSGSGSGTDFTLTISRLEPEDFAVYYCHQSSRLPHTFGQGTKVEIK" recorded_value=1e-06
binder="VRDN-02515 (antibody, V domains shown) VH: EVQLVQSGGGLVKPGGSLRLSCAASGFTFSSFAMHWVRQAPGKGLEWISVIDTRGAHYYADSVKGRFTISRDNAKNSLYLQMNSLRAEDTAVYYCARLGNFYYGMDVWGQGTTVTVSS VL: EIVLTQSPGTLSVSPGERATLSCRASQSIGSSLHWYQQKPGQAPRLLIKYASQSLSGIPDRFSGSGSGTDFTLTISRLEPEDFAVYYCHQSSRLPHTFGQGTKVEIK" recorded_value=5.82e-05
binder="VRDN-02518 (antibody, V domains shown) VH: EVQLVQSGGGLVKPGGSLRLSCAASGFTFSSFAMHWVRQAPGKGLEWISVIDTRGATYYADSVKGRFTISRDNAKNSLYLQMNSLRAEDTAVYYCARHGNFYYGMDVWGQGTTVTVSS VL: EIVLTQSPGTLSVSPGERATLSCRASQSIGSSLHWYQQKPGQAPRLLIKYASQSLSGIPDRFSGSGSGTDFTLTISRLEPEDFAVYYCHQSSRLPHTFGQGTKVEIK" recorded_value=6.31e-05

Here is the next item to consider.
Lookup: Which value of koff has been reported for VRDN-02526 (antibody, V domains shown) VH: EVQLVQSGGGLVKPGGSLRLSCAASGFTFSSFAMHWVRQAPGKGLEWISVIDTRGATYYADSVKGRFTISRDNAKNSLYLQMNSLRAEDTAVYYCARLGNFYYGMHVWGQGTTVTVSS VL: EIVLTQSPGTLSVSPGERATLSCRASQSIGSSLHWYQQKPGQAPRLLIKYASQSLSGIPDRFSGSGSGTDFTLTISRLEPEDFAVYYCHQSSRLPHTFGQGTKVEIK in the records?
Found: 1e-06

FYI, the data here is from patent US20240343814A1.
